Data origin: BindingDB's records for doi:10.1021/jm0494974

Hi! I'm sharing some Ki results obtained with Tubulin beta-2B chain (UniProt Q6B856).
Sequence (Q6B856 whole entry): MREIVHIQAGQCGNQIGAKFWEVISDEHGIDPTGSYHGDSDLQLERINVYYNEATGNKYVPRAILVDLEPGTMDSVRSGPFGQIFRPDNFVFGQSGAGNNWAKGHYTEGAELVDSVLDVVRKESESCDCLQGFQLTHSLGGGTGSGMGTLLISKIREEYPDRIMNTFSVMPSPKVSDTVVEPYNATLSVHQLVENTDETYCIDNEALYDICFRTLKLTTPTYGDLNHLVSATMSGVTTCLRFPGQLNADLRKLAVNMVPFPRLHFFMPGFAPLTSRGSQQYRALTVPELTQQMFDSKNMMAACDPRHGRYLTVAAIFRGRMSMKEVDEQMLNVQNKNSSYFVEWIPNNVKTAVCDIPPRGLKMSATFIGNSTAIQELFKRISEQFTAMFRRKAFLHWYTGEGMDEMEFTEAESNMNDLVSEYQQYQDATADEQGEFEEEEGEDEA
readoutLabel: Ki (µM)

a. COc1ccc(S(=O)(=O)Nc2cccc3cc(Cl)[nH]c23)cc1
b. COc1ccc(S(=O)(=O)Nc2cccc3c(Cl)c[nH]c23)cc1
In: Of a and b , which one carries the higher reported Ki? Reply with the label of the item you choose.
Out: a
